# Tested target: Lysosomal acid glucosylceramidase (Homo sapiens) (UniProt P04062)
# Sequence (P04062 whole entry, looked up): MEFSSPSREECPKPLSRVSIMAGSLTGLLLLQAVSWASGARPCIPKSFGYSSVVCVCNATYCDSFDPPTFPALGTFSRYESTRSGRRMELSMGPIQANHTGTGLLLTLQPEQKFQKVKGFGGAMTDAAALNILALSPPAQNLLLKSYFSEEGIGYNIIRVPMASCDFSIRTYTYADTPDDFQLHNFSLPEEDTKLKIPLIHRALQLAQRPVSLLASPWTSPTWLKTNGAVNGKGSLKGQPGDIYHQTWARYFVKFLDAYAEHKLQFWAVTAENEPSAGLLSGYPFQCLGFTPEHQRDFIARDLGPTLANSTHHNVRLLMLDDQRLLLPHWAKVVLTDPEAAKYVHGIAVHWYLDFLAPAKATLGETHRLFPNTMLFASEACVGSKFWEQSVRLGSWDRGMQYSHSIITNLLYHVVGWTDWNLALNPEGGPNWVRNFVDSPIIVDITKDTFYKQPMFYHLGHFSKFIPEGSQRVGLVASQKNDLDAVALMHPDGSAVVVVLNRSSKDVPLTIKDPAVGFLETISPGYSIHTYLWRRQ
# Method summary: Glucocerebrosidase;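 further: potency means the concentration at half of the fitted maximal effect; the screen sought inhibitors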
# Condition info: purified enzyme, resorufin glucoside fluorescence (screen aimed at inhibitors), 20 min
In all, about 48,000 compounds went through this assay and about 550 (1.1%) were called active. Inconclusive results (about 4%) are left out. No stated cut-off is given here; in the data, active means potency below about 15 µM; inconclusive means mostly about 16 µM to 33 µM; inactive means weaker than that. The sample as a whole holds a higher share of actives than the screen did.
Possible outcomes: True = active, False = inactive

{"columns": ["Compound", "Tested target", "Discrete label"],
 "data": [
  ["O=C(O)CCC(=O)N(Cc1ccco1)c1nc(-c2ccccc2)cs1", "Lysosomal acid glucosylceramidase (Homo sapiens) (UniProt P04062)", "False"],
  ["O=C(c1ccccc1-c1ccccc1)N1CCOCC1", "Lysosomal acid glucosylceramidase (Homo sapiens) (UniProt P04062)", "False"],
  ["CC(C)CCNC(=O)CN(C(=O)Cn1nnc(-c2ccc(F)cc2)n1)C1CCCC1", "Lysosomal acid glucosylceramidase (Homo sapiens) (UniProt P04062)", "False"],
  ["Cc1ccc2c(NC(=O)C3CC3)cccc2n1", "Lysosomal acid glucosylceramidase (Homo sapiens) (UniProt P04062)", "False"],
  ["Cc1cccc2cc(C#N)c(N3CCCC3)nc12", "Lysosomal acid glucosylceramidase (Homo sapiens) (UniProt P04062)", "False"],
  ["CCN(CC)S(=O)(=O)N1CCC(C(=O)NC(C)CCc2ccccc2)CC1 (stereo not drawn)", "Lysosomal acid glucosylceramidase (Homo sapiens) (UniProt P04062)", "False"],
  ["O=C(CSc1nnc(-c2ccccc2)o1)N1CCOCC1", "Lysosomal acid glucosylceramidase (Homo sapiens) (UniProt P04062)", "False"],
  ["Cc1ccccc1-c1nnn(CC(=O)c2ccc(S(=O)(=O)N3CCCC3)cc2)n1", "Lysosomal acid glucosylceramidase (Homo sapiens) (UniProt P04062)", "False"],
  ["CC1(C)Oc2ccc(C(=O)N3CCOCC3)cc2N(CC(=O)Nc2ccccc2)C1=O", "Lysosomal acid glucosylceramidase (Homo sapiens) (UniProt P04062)", "False"],
  ["Fc1ccc(-c2nnc3sc(-c4ccc5c(c4)OCO5)nn23)cc1", "Lysosomal acid glucosylceramidase (Homo sapiens) (UniProt P04062)", "False"],
  ["CC1(C)CC(=O)C=C(NCCCN2CCCC2=O)C1", "Lysosomal acid glucosylceramidase (Homo sapiens) (UniProt P04062)", "False"],
  ["O=C(OCc1nnc(-c2ccccc2)o1)c1ccc2c(c1)C(=O)N(CCc1ccccc1)C2=O", "Lysosomal acid glucosylceramidase (Homo sapiens) (UniProt P04062)", "False"],
  ["CCOc1nc(-c2ccc(OC)cc2)ccc1-c1noc(-c2cc(OC)c(OC)c(OC)c2)n1", "Lysosomal acid glucosylceramidase (Homo sapiens) (UniProt P04062)", "True"],
  ["CC(C)(C)NC(=O)Cn1nnc(-c2ccccc2Cl)n1", "Lysosomal acid glucosylceramidase (Homo sapiens) (UniProt P04062)", "True"],
  ["CCOC(=O)CSc1nnc(-c2ccco2)n1C", "Lysosomal acid glucosylceramidase (Homo sapiens) (UniProt P04062)", "False"],
  ["Cc1ccc(S(=O)(=O)N2CCC(C(=O)N[C@@H](C)C(=O)NCc3ccccc3)CC2)cc1", "Lysosomal acid glucosylceramidase (Homo sapiens) (UniProt P04062)", "False"],
  ["Cc1noc(C)c1COC(=O)Cn1c(C)nc2ccccc21", "Lysosomal acid glucosylceramidase (Homo sapiens) (UniProt P04062)", "False"],
  ["CCn1nnc(NC(=O)c2cc(Cl)c(OC)c(Cl)c2)n1", "Lysosomal acid glucosylceramidase (Homo sapiens) (UniProt P04062)", "False"],
  ["COc1cccc(NC(=O)CN(C)S(=O)(=O)c2ccc(C)cc2)c1", "Lysosomal acid glucosylceramidase (Homo sapiens) (UniProt P04062)", "False"],
  ["O=c1ccc2cc(S(=O)(=O)N3CCN(c4ccccc4)CC3)ccc2o1", "Lysosomal acid glucosylceramidase (Homo sapiens) (UniProt P04062)", "False"],
  ["COc1ccc(N2CCN(Cc3cc(=O)oc4ccc5ccccc5c34)CC2)cc1", "Lysosomal acid glucosylceramidase (Homo sapiens) (UniProt P04062)", "True"],
  ["Cc1ccc(NC(=O)NCC(c2cccnc2)N2CCOCC2)cc1 (stereo not drawn)", "Lysosomal acid glucosylceramidase (Homo sapiens) (UniProt P04062)", "False"],
  ["CCOc1ccc(NC(=O)Nc2ccc(N(C)C(C)=O)cc2)cc1", "Lysosomal acid glucosylceramidase (Homo sapiens) (UniProt P04062)", "False"]
]}
